Biological target: ETS1 (UniProt P14921)
Sequence: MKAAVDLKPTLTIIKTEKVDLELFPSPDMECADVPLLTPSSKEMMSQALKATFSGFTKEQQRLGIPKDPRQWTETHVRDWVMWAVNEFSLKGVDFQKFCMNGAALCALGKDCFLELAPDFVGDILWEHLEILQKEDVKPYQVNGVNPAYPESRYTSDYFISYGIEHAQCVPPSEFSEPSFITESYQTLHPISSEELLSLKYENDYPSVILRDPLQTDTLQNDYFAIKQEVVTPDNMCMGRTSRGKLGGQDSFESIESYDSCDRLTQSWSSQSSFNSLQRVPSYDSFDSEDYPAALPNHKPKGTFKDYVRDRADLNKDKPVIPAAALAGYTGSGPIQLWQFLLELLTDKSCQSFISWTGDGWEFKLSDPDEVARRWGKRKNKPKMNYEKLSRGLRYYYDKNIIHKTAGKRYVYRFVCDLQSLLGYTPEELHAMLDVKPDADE
Assay: ETS1 binding intensity (PBM fluorescence) in presence of RUNX1, normalised to ETS1-only experiment (arbitrary fluorescence units); higher = stronger binding
Conditions: ETS1 concentration 1 nM; RUNX1 concentration 25 nM
Entries and their ETS1 binding intensity values follow.

Check out these entries, answers already filled in.
>>> df
                          item_sequence       measurement_label  readout_value
0  CCAAAAACCCCAGGAGGATGTGGTGAGGAGGGAAGG  ETS1 binding intensity           2590
1  GTGGTCGGGAGGGGAAGTGAGGCGGTTACCTCGGCG  ETS1 binding intensity            689
2  CACCGGAAAAGGCAAGCGCGGCCGCGCGGTTGGCGC  ETS1 binding intensity           1090
3  CACCTGCCTTGCTTCCTGCGGTGCAACCGGCGGGAG  ETS1 binding intensity            585
4  CCAGCAAAGGAAGCTTGGTCAACCACAGCAGCCTGT  ETS1 binding intensity            463

Inquiry: Lab note: need ETS1 binding intensity for "AACATCCGGTTCCCGGTTCTGCCCCCTACCGCAGCT" on ETS1 (UniProt P14921), anyone have it?
Reply text: 5870

Inquiry: Lab note: need ETS1 binding intensity for "TGGCTTGAGCTCAGGAAGTTGTGGCTGCAGTAAGCT" on ETS1 (UniProt P14921), anyone have it?
Reply text: 1970

Inquiry: Lab note: need ETS1 binding intensity for "CTCTTCTTCAGGGTTTCCTGTGGGTACACTGAGAAC" on ETS1 (UniProt P14921), anyone have it?
Reply text: 602

Inquiry: Lab note: need ETS1 binding intensity for "CAGATCCGGCGTGGACGAAGCTCGGGAACCACAACA" on ETS1 (UniProt P14921), anyone have it?
Reply text: 456

Inquiry: Lab note: need ETS1 binding intensity for "AAACTCCCCCACTTCCGCCCACAGCCCTCTGGGCTT" on ETS1 (UniProt P14921), anyone have it?
Reply text: 2120

Inquiry: Lab note: need ETS1 binding intensity for "TGAGAAAGCTATTTCCGCCCACAAAGAGGCAAGTCT" on ETS1 (UniProt P14921), anyone have it?
Reply text: 1370

Inquiry: Lab note: need ETS1 binding intensity for "AGCTCTGCCAGGAAGTGAGAACCACAGGCCTCCCCT" on ETS1 (UniProt P14921), anyone have it?
Reply text: 3140

Inquiry: Lab note: need ETS1 binding intensity for "TGGGGAGCAGGAAGCTGGGGGCGGTTGTGGAGGGAC" on ETS1 (UniProt P14921), anyone have it?
Reply text: 1600

Inquiry: Lab note: need ETS1 binding intensity for "TTCATCTCTCACTTCCTGTGGTGACGGCTGACGGGG" on ETS1 (UniProt P14921), anyone have it?
Reply text: 4690

Inquiry: Lab note: need ETS1 binding intensity for "GGGAGGCCCCATCCTGTGTGGCTGTGGCTTTTGCCT" on ETS1 (UniProt P14921), anyone have it?
Reply text: 451

Inquiry: Lab note: need ETS1 binding intensity for "GCGCCCCGCTTCCGGGGCCGCCCTAAACCGCGGCCG" on ETS1 (UniProt P14921), anyone have it?
Reply text: 2870

Inquiry: Lab note: need ETS1 binding intensity for "AACCCCAAAACGGAAACACCGGAGCCACAAGCTGAG" on ETS1 (UniProt P14921), anyone have it?
Reply text: 961

----------
Entries and their RUNX1 binding intensity values follow.
Molecular target: RUNX1 (UniProt Q01196)
Sequence (Q01196 whole entry): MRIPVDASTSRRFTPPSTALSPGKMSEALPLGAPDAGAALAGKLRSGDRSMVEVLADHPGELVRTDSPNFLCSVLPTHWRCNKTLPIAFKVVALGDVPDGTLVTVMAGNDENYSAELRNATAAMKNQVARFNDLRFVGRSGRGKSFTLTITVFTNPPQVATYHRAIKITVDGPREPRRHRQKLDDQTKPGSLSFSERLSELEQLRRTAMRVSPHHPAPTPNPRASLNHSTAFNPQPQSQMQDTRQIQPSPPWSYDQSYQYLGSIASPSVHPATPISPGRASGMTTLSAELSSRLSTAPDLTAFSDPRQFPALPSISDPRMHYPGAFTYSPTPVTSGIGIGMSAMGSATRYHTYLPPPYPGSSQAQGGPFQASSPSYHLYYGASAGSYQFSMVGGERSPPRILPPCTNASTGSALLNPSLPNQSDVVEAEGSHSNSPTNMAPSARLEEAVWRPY
Experiment: RUNX1 binding intensity (PBM fluorescence), RUNX1 alone (arbitrary fluorescence units); higher = stronger binding
Settings: RUNX1 concentration 2 nM; ETS1 concentration 0 nM
Keep it simple and answer with nothing but the number.

>>> print(df.to_string())
                          item_sequence  readout_value
0  AGTCAAACAGGATGTGGCTGGGGAGGCGGTTGTCAC            725
1  GACTATGTGCTTCCGGTCTCCAATACCGCAGGAGGG            981
2  ATGTACATAGATACAGGATGTGGGTTTGTTACAAAG            746
3  CTCACTTCCCCGGCAGCTCCCTCGCCCCGACCGCAG           1910
4  ATTTCGCTGAAAACAGGAAACCACGAAGCCCAGATG            899
5  GTGGGGAGAGGCAGGAAACCGCTGCCGCCGACGGGG            807
6  AATCCCGGAAACGCGGATTCAGCGGAGCGCGGTGAC            735
7  CTAGCCAGGAAGATAAAGAAGAAACCACCAAAGAGA            870
8  CTGTTTCCTGCCTTTGCTGTCTGTGACCGCATCAGT           1310
9  GCCCAATTCCCGAATCCGGTCTGCGGCGCGCTCGGG            768

Inquiry: Using the record for "GTTGGGAGGCGCACATCCGGCGGTTACCCGGTGCTT" , report its RUNX1 binding intensity.
Reply text: 785

Inquiry: Using the record for "GGTCCCCCCGGTTCCGGCGCGGTTGAGGCCTTCGGT" , report its RUNX1 binding intensity.
Reply text: 758

----------
Target: ETS1 (UniProt P14921)
Sequence: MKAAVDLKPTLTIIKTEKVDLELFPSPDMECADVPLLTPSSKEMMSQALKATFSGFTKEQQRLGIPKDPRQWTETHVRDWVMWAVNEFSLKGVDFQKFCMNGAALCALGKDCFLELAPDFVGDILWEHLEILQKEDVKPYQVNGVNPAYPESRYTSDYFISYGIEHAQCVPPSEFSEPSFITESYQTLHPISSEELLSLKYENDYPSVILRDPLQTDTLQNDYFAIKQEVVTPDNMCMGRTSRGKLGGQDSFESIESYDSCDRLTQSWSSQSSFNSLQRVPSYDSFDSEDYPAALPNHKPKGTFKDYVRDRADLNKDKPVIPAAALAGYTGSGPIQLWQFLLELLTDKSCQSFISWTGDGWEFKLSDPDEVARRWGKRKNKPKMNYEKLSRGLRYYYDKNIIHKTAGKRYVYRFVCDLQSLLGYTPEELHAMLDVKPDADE
Experiment: ETS1 binding intensity (PBM fluorescence), ETS1 alone (arbitrary fluorescence units); higher = stronger binding
Conditions: ETS1 concentration 1 nM; RUNX1 concentration 0 nM
MEASUREMENT_LABEL: ETS1 binding intensity
Keep it simple and answer with nothing but the number.

Check out these entries, answers already filled in.
In [3]: df
Out[3]:
                          item_sequence       measurement_label  readout_value
0  CTCCGCCAGCCACCGGAACTGCGGCCCAGCAAAAAG  ETS1 binding intensity           2590
1  CTTCTACTTCCTGCCCCGCCCCCAGCTGTGGTCACA  ETS1 binding intensity           1420
2  GCCATCCGCAGGACTCCGCGTTCTCGCGGTAAGTGG  ETS1 binding intensity            384
3  GTCGTCCCGGAAACCGGGATGCGGTTATCAGAGCGA  ETS1 binding intensity           1860
4  GACATGCTCCGGAAGCTTGAGGTTTTAACGTTAAGG  ETS1 binding intensity           2040
5  AGCGCCACACTTCCGCTTTGCGGCAGTGTGCGCCCC  ETS1 binding intensity           3490
6  CAGAGAGAGGCCACATCCCTGTGGTCACACATACCC  ETS1 binding intensity            428
7  AATCCACCGGAAACACTTAGACGCCGCAACCCCAGT  ETS1 binding intensity           3660

Inquiry: Lab note: need ETS1 binding intensity for "CAGCTGACAGGAAGGAGAGAACCACAGACAGTGCGA" on ETS1 (UniProt P14921), anyone have it?
Reply text: 782

Inquiry: Lab note: need ETS1 binding intensity for "TGGGGCTAGGCTTCCGGGGCTCTGCGGTCCTCGGCC" on ETS1 (UniProt P14921), anyone have it?
Reply text: 481

Inquiry: Lab note: need ETS1 binding intensity for "CTTTGCTGCAGGATGTTCTAACCACAAGCCCAGGAG" on ETS1 (UniProt P14921), anyone have it?
Reply text: 1070

Inquiry: Lab note: need ETS1 binding intensity for "AAATCCACTCAGAGGAAACCACAGGCCTGGCCCAGC" on ETS1 (UniProt P14921), anyone have it?
Reply text: 365
